B1: MFF (parent)
chain: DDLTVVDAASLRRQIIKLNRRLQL

variants of: B1; assay: protein stability index of a GFP-peptide fusion (GPS, HEK-293T) (PSI 1-6); higher = more stable; conditions: c terminus: a fixed tail appended;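 note: lentivirally expressed fusions sorted by FACS into six bins by GFP to DsRed ratio, PSI derived from sequencing read proportions per bin multiplied by bin number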
experimentalReadout: protein stability index
Response field accepts a number only; no unit should be typed.

Query: Which protein stability index reading was recorded for the variant D2Q ?
Result: 2.32

Query: Which protein stability index reading was recorded for the variant L3F ?
Result: 2.73

Query: Which protein stability index reading was recorded for the variant L3T ?
Result: 2.2

Query: Which protein stability index reading was recorded for the variant L24V ?
Result: 3.01

Query: Which protein stability index reading was recorded for the variant L3I ?
Result: 1.8

Query: Which protein stability index reading was recorded for the variant S10G ?
Result: 2.3
